The reported measurements were obtained from ChEMBL document CHEMBL4837245.

TEST_SUMMARY: Clearance in CD-1 mouse plasma at 1.0 mg/kg, iv measured upto 24 hrs by LC-MS/MS analysis
Type: ADME, organism-based
RECORDED_METRIC: clearance (mL/min/kg)

>>> df
                            compound_smiles  recorded_metric  scale_unit  recorded_value
0  Fc1cc(F)c(F)c(-c2ccc(N[C@H]3C[C@@H]4CN(CC5CCOCC5)C[C@@H]4C3)nn2)c1        clearance   mL/min/kg              17

* * *

TESTED_SYSTEM: Cytochrome P450 2C9 (Homo sapiens)
Sequence (P11712 whole entry): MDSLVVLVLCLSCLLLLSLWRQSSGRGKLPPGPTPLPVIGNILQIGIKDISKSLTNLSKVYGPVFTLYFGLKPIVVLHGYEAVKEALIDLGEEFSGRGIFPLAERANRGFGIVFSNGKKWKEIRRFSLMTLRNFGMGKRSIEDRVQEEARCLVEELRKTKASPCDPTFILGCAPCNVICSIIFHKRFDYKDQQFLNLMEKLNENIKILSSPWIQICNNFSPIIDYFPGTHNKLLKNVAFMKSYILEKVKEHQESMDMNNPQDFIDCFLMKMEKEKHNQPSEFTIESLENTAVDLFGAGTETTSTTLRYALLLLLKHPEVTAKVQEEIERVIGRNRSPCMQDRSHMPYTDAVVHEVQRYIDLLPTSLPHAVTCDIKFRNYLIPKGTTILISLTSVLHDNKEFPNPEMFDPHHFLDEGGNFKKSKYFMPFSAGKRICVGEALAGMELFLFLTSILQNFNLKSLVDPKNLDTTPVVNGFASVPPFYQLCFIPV
TEST_SUMMARY: Inhibition of CYP2C9 in human liver microsomes using diclofenac as substrate preincubated for 15 mins followed by NADPH addition and measured after 8 mins by LC-MS/MS analysis
Assay type: ADME, subcellular
ASSAY_SETUP: time 23 min; read-out: INH
Measured IC50 accompanies every entry in the list below.
RECORDED_METRIC: IC50 (µM)

In [3]: df
Out[3]:
                            compound_smiles  modifier_sign  recorded_value
0  [2H]C([2H])(C1CCOCC1)N1C[C@H]2C[C@H](Nc3ccc(-c4cc(F)cc(F)c4F)nn3)C[C@H]2C1              >              30
1  c1ccc(-c2ccc(N[C@H]3C[C@@H]4CN(CC5CCOCC5)C[C@@H]4C3)nn2)cc1              =            3.12
2  [2H]C([2H])(C1CCOCC1)N1C[C@H]2C[C@H](Nc3ccc(-c4cc(F)ccc4Cl)nn3)C[C@H]2C1              >              30
3  Fc1ccc(F)c(-c2ccc(N[C@H]3C[C@@H]4CN(CC5CCOCC5)C[C@@H]4C3)nn2)c1              =            0.54

* * *

TEST_SUMMARY: Oral bioavailability in CD-1 mouse at 3 mg/kg measured upto 24 hrs by LC-MS/MS analysis
Format: ADME, organism-based
ASSAY_SETUP: in vivo
RECORDED_METRIC: bioavailability

>>> df
                            compound_smiles  recorded_value
0  Fc1cc(F)c(F)c(-c2ccc(N[C@H]3C[C@@H]4CN(CC5CCOCC5)C[C@@H]4C3)nn2)c1          ≥ 100%

* * *

TEST_SUMMARY: Kinetic solubility of compound at pH 6.8
Type: physicochemical
ASSAY_SETUP: buffer, read-out: Kinetic_solubility
RECORDED_METRIC: solubility kinetic

>>> df
                            compound_smiles     recorded_metric  recorded_value
0  Fc1cc(F)c(F)c(-c2ccc(N[C@H]3C[C@@H]4CN(CC5CCOCC5)C[C@@H]4C3)nn2)c1  solubility kinetic         85.1 µM

* * *

TEST_SUMMARY: Ratio of drug concentration in brain to plasma of Sprague-Dawley rat at 1 mg/kg, iv
Type: ADME, organism-based
RECORDED_METRIC: Kp

                            compound_smiles  recorded_metric  recorded_value
0  Fc1cc(F)c(F)c(-c2ccc(N[C@H]3C[C@@H]4CN(CC5CCOCC5)C[C@@H]4C3)nn2)c1               Kp             6.4
